# key: entry, value: DC50
TESTED ON: UniProt:Q9NWZ3
MEASUREMENT PROTOCOL: Degradation of IRAK4 in THP1 cells, Western blot
Format: cell-based
Set-up: Degradation of IRAK4 in THP1 by compound; host or cells: THP-1
CONDITION LABEL: THP-1 cells, 24 hours of incubation, IRAK4 protein by Western blot; read-out: DC50

Check out these entries, answers already filled in.
COMPOUND: CC(C)(O)c1nn(-c2ccc(N3CCN(C4CCN(c5ccc(C(=O)NC6CCC(=O)NC6=O)cc5F)CC4)CC3)cc2)cc1NC(=O)c1cccc(C(F)(F)F)n1 (centres unmarked)
TESTED ON: UniProt:Q9NWZ3
ENDPOINT VALUE: < 0.1 µM
//
COMPOUND: NC(=O)c1nn(-c2ccc(N3CCN(C(=O)N4CCC(Cc5ccc(N6CCC(=O)NC6=O)cc5)CC4)CC3)cc2)cc1NC(=O)c1cccc(C(F)(F)F)n1
TESTED ON: UniProt:Q9NWZ3
ENDPOINT VALUE: 0.1 to 1 µM
//
COMPOUND: Cn1c(=O)n(C2CCC(=O)NC2=O)c2cccc(N3CCC4(CC3)CN(C(=O)Cc3ccc(-n5cc(NC(=O)c6cccc(C(F)(F)F)n6)c(C(N)=O)n5)cc3)C4)c21 (centres unmarked)
TESTED ON: UniProt:Q9NWZ3
ENDPOINT VALUE: < 0.1 µM
//
COMPOUND: NC(=O)c1nn(-c2ccc(N3CCN(C4CCN(c5ccc(C(=O)NC6CCC(=O)NC6=O)cc5F)CC4)CC3)cc2)cc1NC(=O)c1cccc(C(F)(F)F)n1 (centres unmarked)
TESTED ON: UniProt:Q9NWZ3
ENDPOINT VALUE: < 0.1 µM
//
COMPOUND: NC(=O)c1nn(-c2ccc(N3CCN(CC4CCN(c5ccc(OC6CCC(=O)NC6=O)cc5F)CC4)CC3)cc2)cc1NC(=O)c1cccc(C(F)(F)F)n1 (centres unmarked)
TESTED ON: UniProt:Q9NWZ3
ENDPOINT VALUE: < 0.1 µM
//
COMPOUND: Cn1c(=O)n(C2CCC(=O)NC2=O)c2cccc(N3CCN(C(=O)C4CCN(Cc5ccc(-n6cc(NC(=O)c7cccc(-c8ccn[nH]8)n7)c(S(N)(=O)=O)n6)cc5)CC4)CC3)c21 (centres unmarked)
TESTED ON: UniProt:Q9NWZ3
ENDPOINT VALUE: < 0.1 µM

q: DC50 for NC(=O)c1nn(C23CC(N4CCN(C5CCN(c6ccc(NC7CCC(=O)NC7=O)cc6F)CC5)CC4)(C2)C3)cc1NC(=O)c1cccc(C(F)(F)F)n1 (centres unmarked) ?
a: < 0.1 µM

q: And the next one, NC(=O)c1nn(-c2ccc(N3CCN(CC4CCN(c5cccc(NC6CCC(=O)NC6=O)c5)CC4)CC3)cc2)cc1NC(=O)c1cccc(C(F)(F)F)n1 (centres unmarked) ?
a: < 0.1 µM

q: And the next one, NC(=O)c1cn(-c2ccc(N3CCN(C4CCN(c5ccc(NC6CCC(=O)NC6=O)cc5F)CC4)CC3)cc2)cc1NC(=O)c1cccc(C(F)(F)F)n1 (centres unmarked) ?
a: < 0.1 µM

q: And the next one, NC(=O)c1nn(-c2ccc(N3CCN(C4CCN(c5ccc(C(=O)NC6CCC(=O)NC6=O)c(F)c5)CC4)CC3)cc2)cc1NC(=O)c1cccc(C(F)(F)F)n1 (centres unmarked) ?
a: < 0.1 µM

q: And the next one, CN(Cc1ccc(-n2cc(NC(=O)c3cccc(C(F)(F)F)n3)c(C(N)=O)n2)cc1)C1CC2(CCN(c3cccc4c3n(C)c(=O)n4C3CCC(=O)NC3)CC2)C1 (centres unmarked) ?
a: 0.1 to 1 µM

###

TESTED ON: IRAK4 (Homo sapiens, UniProt Q9NWZ3)
Sequence (Q9NWZ3 whole entry): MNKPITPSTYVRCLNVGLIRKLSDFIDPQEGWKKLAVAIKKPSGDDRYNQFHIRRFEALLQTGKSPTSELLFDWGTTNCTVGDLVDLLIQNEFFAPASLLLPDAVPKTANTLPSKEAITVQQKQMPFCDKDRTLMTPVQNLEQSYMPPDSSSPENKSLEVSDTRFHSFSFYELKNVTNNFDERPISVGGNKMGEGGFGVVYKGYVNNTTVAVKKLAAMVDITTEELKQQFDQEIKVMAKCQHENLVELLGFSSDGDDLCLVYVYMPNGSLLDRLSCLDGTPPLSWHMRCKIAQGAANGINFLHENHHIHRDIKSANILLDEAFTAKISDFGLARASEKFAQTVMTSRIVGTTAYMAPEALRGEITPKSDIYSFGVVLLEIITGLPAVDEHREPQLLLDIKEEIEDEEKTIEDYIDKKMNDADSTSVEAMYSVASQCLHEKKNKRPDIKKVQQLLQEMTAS
MEASUREMENT PROTOCOL: Degradation of IRAK4 in THP1 cells, Western blot
Assay type: cell-based
Design: Degradation of IRAK4 in THP1 by compound; host or cells: THP-1
CONDITION LABEL: THP-1 cells, 24 hours of incubation, IRAK4 protein by Western blot; read-out: DC50
Structures can show the parent of a compound that is named as a salt.
REPORTED METRIC: DC50

Check out these entries, answers already filled in.
COMPOUND: COc1ccc(C(=O)N2CCC(CCN3CCN(c4ccc(-n5cc(NC(=O)c6cccc(C(F)(F)F)n6)c(C(F)F)n5)cc4)CC3)CC2)cc1N1CCC(=O)NC1=O [Compound A148]
ENDPOINT VALUE: 100 to 1000 nM
//
COMPOUND: NC(=O)c1nn(-c2ccc(N3CCN(CC4CCN(c5ccc(OC6CCC(=O)NC6=O)cn5)CC4)CC3)cc2)cc1NC(=O)c1cccc(C(F)(F)F)n1 (stereo not drawn) [Compound A377]
ENDPOINT VALUE: < 100 nM
//
COMPOUND: CC(C)(O)c1nn(-c2ccc(N3CCN(CC4CCN(c5ccc(NC6CCC(=O)NC6=O)cc5F)CC4)CC3)cc2)cc1NC(=O)c1cccc(C#N)n1 (stereo not drawn) [Compound A386]
ENDPOINT VALUE: > 1000 nM
//
COMPOUND: Cn1c(=O)n(C2CCC(=O)NC2=O)c2cccc(N3CCC(CN4CCN(c5ccc(-n6cc(NC(=O)c7cccc(C(F)(F)F)n7)c(C(=O)NC7CC7)n6)cc5)CC4)CC3)c21 (stereo not drawn) [Compound A369, formate]
ENDPOINT VALUE: < 100 nM
//
COMPOUND: N#Cc1cccc(C(=O)Nc2cn(-c3ccc(N4CCN(C5CCN(c6ccc(NC7CCC(=O)NC7=O)cc6F)CC5)CC4)cc3)nc2C(N)=O)n1 (stereo not drawn) [Compound A388]
ENDPOINT VALUE: > 1000 nM

--- query ---
q: DC50 for COc1ccc(C(=O)N2CCC(CCN3CCN(c4ccc(-n5cc(NC(=O)c6cccc(C(F)(F)F)n6)c(C(N)=O)n5)cc4)CC3)CC2)cc1N1CCC(=O)NC1=O [Compound A144] ?
a: < 100 nM

###

# key: entry, value: IC50
Test system: IL-6
MEASUREMENT PROTOCOL: Inhibition of R848-induced IL-6 release in human PBMCs, IL-6 ELISA
Type: cell-based
CONDITION LABEL: PBMC, compound 24 hours, then R848 10 µg/mL 5 hours

Check out these entries, answers already filled in.
MOLECULE: COc1ccc(C(=O)N2CCC(CCN3CCN(c4ccc(-n5cc(NC(=O)c6cccc(C(F)(F)F)n6)c(C(N)=O)n5)cc4)CC3)C(F)(F)C2)cc1N1CCC(=O)NC1=O (centres unmarked)
TESTED ON: IL-6
ENDPOINT VALUE: < 10 nM
--
MOLECULE: Cn1c(=O)n(C2CCC(=O)NC2=O)c2cccc(N3CCC4(CCN(C(=O)c5ccc(-n6cc(NC(=O)c7cccc(C(F)(F)F)n7)c(C(N)=O)n6)cc5)C4)CC3)c21 (centres unmarked)
TESTED ON: IL-6
ENDPOINT VALUE: < 10 nM
--
MOLECULE: NC(=O)c1nn(-c2ccc(N3CCN(CC4CCN(c5ccc(N6CCC(=O)NC6=O)cc5)CC4)CC3)cc2)cc1NC(=O)c1cccc(C(F)(F)F)n1
TESTED ON: IL-6
ENDPOINT VALUE: 10 to 30 nM

q: IC50 for NC(=O)c1nn(-c2ccc(N3CCN(CC4CCN(c5ccc(C(=O)NC6CCC(=O)NC6=O)cc5)CC4)CC3)cc2)cc1NC(=O)c1cccc(C(F)(F)F)n1 (centres unmarked) ?
a: 10 to 30 nM

q: And the next one, Cn1c(=O)n(C2CCC(=O)NC2=O)c2cccc(N3CCC(CCN4CCN(c5ccc(-n6cc(NC(=O)c7cccc(C(F)(F)F)n7)c(C(N)=O)n6)cc5)CC4)CC3)c21 (centres unmarked) ?
a: < 10 nM

q: And the next one, NC(=O)c1nn(-c2ccc(N3CCN(CCN4CCN(c5ccc6c(c5)C(=O)N(C5CCC(=O)NC5=O)C6=O)CC4)CC3)cc2)cc1NC(=O)c1cccc(C(F)(F)F)n1 (centres unmarked) ?
a: < 10 nM

q: And the next one, NC(=O)c1nn(-c2ccc(CN3CCC4(CC3)CN(c3ccc5c(c3)C(=O)N(C3CCC(=O)NC3=O)C5=O)C4)cc2)cc1NC(=O)c1cccc(C(F)(F)F)n1 (centres unmarked) ?
a: 10 to 30 nM

q: And the next one, Cn1c(=O)n(C2CCC(=O)NC2=O)c2cccc(N3CCC4(CCN(Cc5ccc(-n6cc(NC(=O)c7cccc(C(F)(F)F)n7)c(C(N)=O)n6)cc5)C4)CC3)c21 (centres unmarked) ?
a: < 10 nM

q: And the next one, COc1ccc(C(=O)N2CCC(CCN3CCN(c4ccc(N5C=C(NC(=O)c6cccc(C(F)(F)F)n6)C(=C=O)N5)cc4)CC3)C2)cc1N1CCC(=O)NC1=O (centres unmarked) ?
a: < 10 nM

q: And the next one, `COc1ccc(C(=O)N2CCC(CCN3CCN(c4ccc(-n5cc(NC(=O)c6cccc(C(F)(F)F)n6)c(C(F)F)n5)cc4)CC3)CC2)cc1N1CCC(=O)NC1=O` ?
a: 10 to 30 nM

q: And the next one, `COc1ccc(C(=O)N2CCN(CCN3CCN(c4ccc(-n5cc(NC(=O)c6cccc(C(F)(F)F)n6)c(C(N)=O)n5)cc4)CC3)CC2)cc1N1CCC(=O)NC1=O` ?
a: < 10 nM
